Provenance of the data: PubChem BioAssay

- Tested on: Human papillomavirus type 1a protein E7 (residues 44-93)
- protocolNotes: HPV1a E7 fragment binders on microarrays, primary screen, biochemical, small-molecule microarray, residues 44-93, 635 nm fluorescence (AID 1108);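 further: E7 fragment applied at 1 µg/mL in TBST for 1 h at 4 C; score combines spot fluorescence with its signal to noise ratio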
- reportedConditions: small-molecule microarray binding, fluorescence 635 nm; higher = more signal
Please enter rule met where composite z-score is greater than or equal to 0.8, and rule not met where it is lower.

{"compound": "C[C@@H]1CCC2C(=O)N(Cc3ccccc3)C[C@@H](O)CN2[C@H]1c1ccc(Br)cc1 (stereo partly drawn)", "discreteLabel": "rule not met"}
{"compound": "COCCCNC(=O)[C@]1(Cc2ccccc2)N=C(c2ccc(OCCCO)cc2)O[C@@H]1c1ccccc1", "discreteLabel": "rule met"}
{"compound": "CC(CCN1CCCCc2nc(C)c(C)cc21)=NOC(C)CN1CCCCc2nc(C)c(C)cc21 (stereo not drawn)", "discreteLabel": "rule met"}
{"compound": "CC(C)[C@@H](OCc1ccccc1)[C@H](C)C=NOC[C@@H](C)[C@H](OCc1ccccc1)C(C)C", "discreteLabel": "rule not met"}
{"compound": "CCN1C(=O)[C@H]2[C@H]3[C@H](O)[C@H](O)CC(=NOC[C@@H](C)[C@H](OCc4ccccc4)C(C)C)[C@@H]3CC[C@H]2C1=O", "discreteLabel": "rule not met"}
{"compound": "COc1ccc(O[C@@H]2[C@H](O)CO[C@H]2C=CC#Cc2ccccc2)cc1", "discreteLabel": "rule not met"}
{"compound": "CCCC[C@@H](O)C1=C(C)C[C@H]2C(=O)N(Cc3ccccc3)C(=O)[C@H]2[C@H]1CO", "discreteLabel": "rule not met"}

----------
- assaySystem: Follistatin (Homo sapiens)
- protocolNotes: follistatin binders on small-molecule microarrays, primary screen, biochemical, small-molecule microarray, 635/667 nm fluorescence (AID 1132)
- reportedConditions: FST binding, 635 nm fluorescence, higher = more signal
Each entry below carries its recorded composite z-score.
recordedEndpoint: composite z-score

{"compound": "COC(=O)CC1OC1[C@H](C)[C@@H](OC)C(C)C (some centres undefined)", "recordedEndpoint": "composite z-score", "experimentalValue": 0.623}
{"compound": "O=C1C[C@@H](O)[C@@H](O)[C@@H]2[C@@H]3C(=O)N(C4CCCCC4)C(=O)[C@@H]3CC[C@H]12", "recordedEndpoint": "composite z-score", "experimentalValue": 0.525}
{"compound": "COc1ccc(O[C@H]2C=C[C@@H](c3ccccc3)O[C@@H]2COC(=O)CCC(C)=NOC[C@@H](C)[C@H](OCc2ccccc2)C(C)C)cc1", "recordedEndpoint": "composite z-score", "experimentalValue": -0.865}
{"compound": "COc1ccc(O[C@H]2C=C[C@@H](c3ccccc3)O[C@@H]2COC(=O)CCC(C)=NO[C@H](C)c2cn([C@@H]3COC[C@H]3O)nn2)cc1", "recordedEndpoint": "composite z-score", "experimentalValue": 0.368}

----------
Each entry below carries its recorded composite z-score.
- assaySystem: Torsin-1A-interacting protein 1 (Homo sapiens) (UniProt Q5JTV8)
- Sequence (Q5JTV8 whole entry, looked up): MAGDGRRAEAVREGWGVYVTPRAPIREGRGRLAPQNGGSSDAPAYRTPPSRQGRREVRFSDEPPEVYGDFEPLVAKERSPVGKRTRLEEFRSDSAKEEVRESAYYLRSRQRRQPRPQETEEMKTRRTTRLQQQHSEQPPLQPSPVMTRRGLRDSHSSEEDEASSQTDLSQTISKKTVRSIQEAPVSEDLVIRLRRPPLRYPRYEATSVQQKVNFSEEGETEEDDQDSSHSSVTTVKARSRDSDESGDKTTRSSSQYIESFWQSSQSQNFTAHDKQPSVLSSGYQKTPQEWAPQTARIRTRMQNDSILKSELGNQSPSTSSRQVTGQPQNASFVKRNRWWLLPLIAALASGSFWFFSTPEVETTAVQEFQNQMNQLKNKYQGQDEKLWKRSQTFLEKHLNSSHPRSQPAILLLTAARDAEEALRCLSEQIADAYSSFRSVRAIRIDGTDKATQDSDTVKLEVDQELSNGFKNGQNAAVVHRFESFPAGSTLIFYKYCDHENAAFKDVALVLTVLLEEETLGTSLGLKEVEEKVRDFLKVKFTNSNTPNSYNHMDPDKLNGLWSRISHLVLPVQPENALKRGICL
- protocolNotes: LAP1 binders from COS7 cell lysate, primary screen, small-molecule microarray, 635/667 nm fluorescence (AID 1116)
- reportedConditions: COS7-hLAP1 lysate binding, 635 nm fluorescence, higher = more signal
recordedEndpoint: composite z-score

{"compound": "O=C1C[C@@H](O)[C@@H](O)[C@@H]2[C@@H]3C(=O)N(Cc4ccc5c(c4)OCO5)C(=O)[C@@H]3CC[C@@H]12", "experimentalValue": 0.441}
{"compound": "CS(=O)(=O)CCOC(=O)C1=CC(CCCO)=CC(c2cccs2)N(Cc2cccc(OC(F)(F)F)c2)C=C1C(=O)OCCS(C)(=O)=O (centres undefined)", "experimentalValue": 1.88}
{"compound": "CO[C@@H]1COC(=O)[C@@H]2CCCN2C(=O)[C@@H](C)COC(=O)[C@H](COCc2ccccc2)NC(=O)CC=C[C@H]1C", "experimentalValue": 0.142}
{"compound": "CCN1C(=O)[C@H]2[C@H]3[C@H](O)[C@H](O)CC(=NOC(C)CN4CCCCc5nc(C)c(C)cc54)[C@@H]3CC[C@H]2C1=O (some centres undefined)", "experimentalValue": -0.401}
